# experimental-system: Sodium channel alpha subunits; brain (Types I, II, III) (Homo sapiens, UniProt P35498+Q99250+Q9NY46)
# assay-explanation: Inhibition of binding of Batrachotoxinin [3H]BTX-B to high affinity sites on voltage dependent sodium channels in a vesicular preparation from guinea pig cerebral cortex
# Assay type: tissue-based, Cavia porcellus
Binarize IC50 at 3 µM; below is T, at or above is F.

IN: Answer whether the compound "CC(C)NC[C@@H](O)COc1cccc2ccccc12" has IC50 strictly less than 3 µM
OUT: F

IN: Also check CCN(CC)CCCN1C(=O)CC2(CCCc3ccccc32)C1=O (racemic; form 2)
OUT: F

IN: Also check CCCCOc1cc(C(=O)OCCN(CC)CC)ccc1N [BENOXINATE]
OUT: T

IN: Also check "Cc1ccc(N(CC2=NCCN2)c2cccc(O)c2)cc1"
OUT: F

IN: Also check CCN(CC)CCCN1C(=O)CC2(CCCc3ccccc32)C1=O (racemic; form 1)
OUT: F

IN: Also check "CCCCN(CCCC)CCCOC(=O)c1ccc(N)cc1"
OUT: T

IN: Also check "OC(c1ccccc1)(c1ccccc1)C1CCNCC1"
OUT: F

IN: Also check "CC(C)CNCCOC(=O)c1ccc(N)cc1"
OUT: F

IN: Also check "OC(CCCN1CCCCC1)(c1ccccc1)c1ccccc1"
OUT: F

IN: Also check "CCCNC(C)(C)COC(=O)c1ccccc1"
OUT: F

IN: Also check "COC(=O)[C@H]1[C@H]2C[C@@H]3c4[nH]c5cc(OC)ccc5c4CCN3C[C@H]2C[C@@H](OC(=O)c2cc(OC)c(OC)c(OC)c2)[C@@H]1OC"
OUT: T

IN: Also check "CCCCc1cc2ccccc2c(OCCN(C)C)n1"
OUT: F

IN: Also check CN(C)C(=O)C(CCN1CCC(O)(c2ccc(Cl)cc2)CC1)(c1ccccc1)c1ccccc1 [LOPERAMIDE]
OUT: T

IN: Also check CC(CN1c2ccccc2Sc2ccccc21)N(C)C (stereo unspecified)
OUT: F

IN: Also check O=C(Nc1ccccc1)OCC(CN1CCCCC1)OC(=O)Nc1ccccc1 (stereo unspecified)
OUT: T

IN: Also check "C[N+](C)(C)CCOC(c1ccccc1)c1ccccc1.[I-]"
OUT: F

IN: Also check "CCN(CC)CCNC(=O)c1ccc(N=[N+]=[N-])cc1"
OUT: F

IN: Also check "CCN(CC)CCOC(=O)C1(C2CCCCC2)CCCCC1"
OUT: F

IN: Also check "COc1cccc(OC)c1OCCNCC1=COc2ccccc2O1"
OUT: T

IN: Also check CC1CCCCN1CCCOC(=O)c1ccc(OC2CCCCC2)cc1 (stereo unspecified)
OUT: T

IN: Also check COc1ccc(CCN(C)CCCC(C#N)(c2cc(OC)c(OC)c(OC)c2)C(C)C)cc1OC (stereo unspecified)
OUT: F

IN: Also check "CCOc1ccc(/N=C(\C)Nc2ccc(OCC)cc2)cc1"
OUT: T

IN: Also check CC1CCCCN1CCCOC(=O)c1ccccc1 (stereo unspecified)
OUT: F

IN: Also check N=C1CCCCCCCCCCCN1C1CCCC1c1ccccc1 (stereo unspecified)
OUT: T

IN: Also check "CN1CC[C@@]23CCCC[C@@H]2[C@@H]1Cc1ccc(O)cc13"
OUT: F

IN: Also check CC(Cc1ccccc1)NCCC(c1ccccc1)c1ccccc1 (stereo unspecified)
OUT: T

IN: Also check C=C(c1ccc(Oc2cccc3ccccc23)cc1)C1COC2(CCCCC2)OO1.Cl (stereo unspecified)
OUT: F

IN: Also check "CCCOc1cc(N)ccc1C(=O)OCCN(CC)CC"
OUT: F

IN: Also check "CCCCOc1ccc(OCCCN2CCOCC2)cc1"
OUT: F

IN: Also check c1ccc2c(c1)OCC(CN1CCCCC1)O2 (stereo unspecified)
OUT: F

IN: Also check "CNCCCN1c2ccccc2CCc2ccccc21"
OUT: T
